- Tested on: HL-60
- method summary: NCI tumour cell line growth inhibition, 48 h
Calls of active or inactive are those of the source. No stated cut-off is given here; in the data, active = GI50 up to about 1.1 µM and inactive = higher.
assay endpoint: GI50

- compound: "C[C@]12CC[C@H]3[C@@H](CC[C@]4(O)C[C@@H](O)CC[C@]34C=O)[C@@]1(O)CC[C@@H]2C1=CC(=O)OC1"
  assay endpoint: "GI50"
  result: "0.347 µM (active)"
- compound: "CC1CN1P1(N2CC2C)=NP(N2CC2C)(N2CC2C)=NP(N2CC2C)(N2CC2C)=N1 (stereo not drawn)"
  assay endpoint: "GI50"
  result: "> 50 µM (inactive)"
- compound: "Cc1ccc(NC(=O)CCc2nnc(N)o2)cc1"
  assay endpoint: "GI50"
  result: "> 67.3 µM (inactive)"
- compound: "CC(=O)O[C@H]1C[C@H]2[C@@H]([C@H](OC(C)=O)C[C@@H]3CC4(CC[C@@]32C)OOC2(CCCCC2)OO4)[C@@H]2CC[C@H]([C@H](C)CCC(N)=O)[C@@]12C"
  assay endpoint: "GI50"
  result: "1.69 µM (inactive)"
- compound: "Nc1nc(Cl)cc(NCC2(CO)CC(CCCCc3ccccc3)C2)n1 (stereo not drawn)"
  assay endpoint: "GI50"
  result: "6.55 µM (inactive)"

Which measured GI50 value corresponds to NC(CCc1ncc(-c2ccccc2)s1)C(=O)O (stereo not drawn) ?
> 100 µM (inactive)

Proceed to O=C1CC2(C[C@@H]3CCCCCCCCC[C@@H](C3)C2)N1 (stereo partly drawn)
15.1 µM (inactive)

Proceed to COc1cc(/C=C2\CC3C4CC[C@H]5C[C@@H](O)CC[C@]5(C)C4CC[C@]3(C)\C2=N\O)cc(OC)c1OC (stereo partly drawn)
3.46 µM (inactive)

---

# GI50 values compiled below
- Test system: SK-MEL-5
- method summary: NCI tumour cell line growth inhibition, 48 h
The source made the active and inactive calls. Cut-off read from the data, not from the text of the source: active = GI50 up to about 1.1 µM and inactive = higher.

Solved entries:
- structure smiles string: "Cc1cc(C)nc(NS(=O)(=O)c2ccc(Nc3c4ccccc4nc4c(C(=O)N5CCN(CCO)CC5)cccc34)cc2)n1"
  assay endpoint: "GI50"
  result: "> 100 µM (inactive)"
- structure smiles string: "CN(C)CCNC(=O)c1cc(NC(=O)c2cc(NC(=O)CC/C=C3/[C@@H]4CC[C@H]3N=N4)cn2C)cn1C"
  assay endpoint: "GI50"
  result: "> 100 µM (inactive)"
- structure smiles string: "COc1ccc2c(c1)C1=NCCN(CCN(C)C)c3ccc([N+](=O)[O-])c(c31)N2"
  assay endpoint: "GI50"
  result: "0.845 µM (active)"

Turning to the following molecule.
Which measured GI50 value corresponds to `O=C1/C(=C/c2ccccc2)CN(C(=O)/C=C/c2ccccc2)C/C1=C\c1ccccc1` ?
8.38 µM (inactive)

---

- Tested on: ACHN
- method summary: NCI tumour cell line growth inhibition, 48 h
Activity calls are given as the source filed them. No stated cut-off is given here; in the data, active = GI50 up to about 1.1 µM and inactive = higher.
assay endpoint: GI50

Solved entries:
- compound: "O=S(=O)(/N=c1/[nH]c2ccccc2n1S(=O)(=O)c1ccccc1)c1ccccc1"
  GI50: "26.5 µM (inactive)"
- compound: "CC(C)(C)C#COC(=O)c1ccccc1"
  GI50: "> 100 µM (inactive)"
- compound: "O=C(c1ccsc1)c1nccc2c1cnc1ccccc12"
  GI50: "> 100 µM (inactive)"

Which measured GI50 value corresponds to COc1ccc(/C=C/c2cc(OC)cc(=O)o2)cc1 [YANGONIN] ?
61.7 µM (inactive)

Proceed to `FC(F)(F)c1ccc2nc(NCc3ccccc3)c(-c3ccccc3)nc2c1`
33.2 µM (inactive)

Proceed to CC(C)CC1[C@@H](OCc2ccccc2)COS(=O)N1Cc1ccccc1 (stereo partly specified)
35 µM (inactive)

Proceed to `N#CC(C#N)=c1c2ccccc2c(=C(C#N)C#N)c2ccccc12`
20 µM (inactive)

Proceed to `O=C(c1cc(Cl)ccc1Cl)N1CCN(c2ccc(Cl)c(Cl)c2)CC1`
47 µM (inactive)

Proceed to `Clc1ccc(Nc2nn3c(CCCCCCCCc4nnc5sc(Nc6ccc(Cl)cc6)nn45)nnc3s2)cc1`
> 100 µM (inactive)

Proceed to `NCc1ccccc1.O=C(O)NCc1ccccc1`
35.9 µM (inactive)

Proceed to `O=C(c1cc2ccccc2cc1O)N1CCCCC1`
38.2 µM (inactive)

---

- System: OVCAR-3
- method summary: NCI tumour cell line growth inhibition, 48 h
The source made the active and inactive calls. Cut-off read from the data, not from the text of the source: active = GI50 up to about 1.1 µM and inactive = higher.
# GI50 values compiled below

Solved entries:
- compound: "COc1ccc(OC)c(NC(=O)C2=C(C)NC(C)=C(C(=O)Nc3cc(OC)ccc3OC)C2c2ccco2)c1"
  assay endpoint: "GI50"
  result: "> 100 µM (inactive)"
- compound: "NCc1ccccc1.O=C(O)NCc1ccccc1"
  assay endpoint: "GI50"
  result: "31.4 µM (inactive)"
- compound: "CC1=C(N(C)C)C(=O)c2nc3n(c2C1=O)CCC3OC(N)=O (stereo not given)"
  assay endpoint: "GI50"
  result: "16.8 µM (inactive)"
- compound: "C[N+]1(C)C/C(=C\\c2ccc(O)cc2)C(=O)/C(=C/c2ccc(O)cc2)C1"
  assay endpoint: "GI50"
  result: "> 100 µM (inactive)"
- compound: "C/C(=N\\N=C(\\N)S)c1ccc(Oc2ccccc2)cc1"
  assay endpoint: "GI50"
  result: "10.1 µM (inactive)"
- compound: "C[C@@H]([C@H]1CC[C@@]2(C)[C@@H]3CC[C@@H]4C(=CC3=CC[C@]12C)CC[C@H](N(C)C)C4(C)C)N(C)C"
  assay endpoint: "GI50"
  result: "> 100 µM (inactive)"
- compound: "c1ccc(CSc2nnc3c4ccccc4c4ccccc4c3n2)cc1"
  assay endpoint: "GI50"
  result: "21.7 µM (inactive)"
- compound: "O=C(c1cc(Cl)ccc1Cl)N1CCN(c2ccc(Cl)c(Cl)c2)CC1"
  assay endpoint: "GI50"
  result: "31.4 µM (inactive)"

# query: GI50 | item O=C(O)C12CCC(CC1=O)C2 (stereo not given) | system: OVCAR-3
> 100 µM (inactive)

Proceed to `C=CCN1C(=O)CS/C1=N\NC(=O)CSc1nc2ccccc2c(=O)n1CC`
> 100 µM (inactive)

---

- Test system: SNB-75
- method summary: NCI tumour cell line growth inhibition, 48 h
The source made the active and inactive calls. No stated cut-off is given here; in the data, active = GI50 up to about 1.1 µM and inactive = higher. Non-standard residues stand in square brackets, D forms with d. Residues, ends and D or L forms follow the SMILES beside them. *: point of attachment. Ac5c = NC1(C(=O)O)CCCC1; Boc = CC(C)(C)OC(=O)*; tBu = CC(C)(C)*
assay endpoint: GI50

- compound: "Cc1c(N2CCOCC2)nc2ccc(Cl)cc2c1-c1ccccc1"
  GI50: "31.4 µM (inactive)"
- compound: "CC(OC(C)(C)C)C(NC(=O)C(CCCCNC(=O)OC(C)(C)C)NC(=O)C(Cc1c[nH]c2ccccc12)NC(=O)C(N)Cc1ccccc1)C(=O)NC(Cc1ccccc1)C(=O)NC1(C(=O)O)CCCC1 (stereo not given) (H-FWK(Boc)T(tBu)F[Ac5c]-OH; configuration not given here)"
  GI50: "> 100 µM (inactive)"
- compound: "COC(=O)CC(C(C(=O)OC)C(=O)OC)N1C(=O)OC(c2ccccc2)C1c1ccccc1 (stereo not given)"
  GI50: "> 100 µM (inactive)"
- compound: "COc1ccc(/C=C/c2cc(OC)cc(=O)o2)cc1 [YANGONIN]"
  GI50: "20 µM (inactive)"

Turning to the following compound.
Which measured GI50 value corresponds to `CCOP(=O)(OCC)/C(F)=C/c1ccccc1` ?
> 100 µM (inactive)

---

# GI50 values compiled below
- Test system: U-251
- method summary: NCI tumour cell line growth inhibition, 48 h
Calls of active or inactive are those of the source. Cut-off read from the data, not from the text of the source: active = GI50 up to about 1.1 µM and inactive = higher. Non-standard residues stand in square brackets, D forms with d. Residues, ends and D or L forms follow the SMILES beside them. *: point of attachment. Ac5c = NC1(C(=O)O)CCCC1; Boc = CC(C)(C)OC(=O)*; tBu = CC(C)(C)*

Solved entries:
- compound: "CC1CN=C(N(C)C(=O)Nc2ccc(Cl)c(Cl)c2)S1 (stereo unspecified)"
  result: "31.6 µM (inactive)"
- compound: "O=C1CCC(c2ccccc2)(c2ccccc2)CC1"
  result: "> 100 µM (inactive)"
- compound: "C/C(=N\\N=C(\\N)S)c1ccc(Oc2ccccc2)cc1"
  result: "15.4 µM (inactive)"
- compound: "C=C(CN(C)C)C(=O)c1ccc(C)cc1C"
  result: "16.9 µM (inactive)"
- compound: "Cc1cc(C)c2c(O)c(S(=O)(=O)c3ccc(Cl)cc3)c(=O)oc2c1"
  result: "37.7 µM (inactive)"

Which measured GI50 value corresponds to CC(OC(C)(C)C)C(NC(=O)C(CCCCNC(=O)OC(C)(C)C)NC(=O)C(Cc1c[nH]c2ccccc12)NC(=O)C(N)Cc1ccccc1)C(=O)NC(Cc1ccccc1)C(=O)NC1(C(=O)O)CCCC1 (stereo unspecified) (H-FWK(Boc)T(tBu)F[Ac5c]-OH; configuration not given here) ?
> 100 µM (inactive)

Proceed to `O=C(NNc1nc(-c2ccccc2)cs1)Nc1ccccc1`
22.2 µM (inactive)

Proceed to `O=C(CCc1ccc(O)c(O)c1)c1ccc(O)c(O)c1O`
14.8 µM (inactive)

Proceed to O=C(O)c1ccc(C2SCc3nc4ccccc4n32)cc1 (stereo unspecified)
> 100 µM (inactive)

Proceed to COc1cc2c(c(O)c1OC)C(O)C1CCC(=O)N1C2c1cccc2ccccc12 (stereo unspecified)
> 100 µM (inactive)

Proceed to `O=C1C2=Cc3ccccc3CCN2c2ccc([N+](=O)[O-])cc21`
> 100 µM (inactive)

Proceed to Cc1cc(C)c2c(c1)CC1(Cc3c(C)cc(C)cc3C1=O)C2=O (stereo unspecified)
> 100 µM (inactive)

Proceed to `Cc1ccc2c(c1)[nH]c(=S)n2C=C1C(=O)CC(C)(C)CC1=O`
> 100 µM (inactive)

Proceed to CC1CC(N2CCOCC2)=Nc2ccccc2N1C (stereo unspecified)
> 100 µM (inactive)

Proceed to `O=C(SC1=NCCN1)c1cccc2ccccc12`
45.5 µM (inactive)

Proceed to Nc1ccc(C2=Nc3ccccc3SC(c3ccccc3O)C2)cc1 (stereo unspecified)
45.5 µM (inactive)
